B1: CAMK2A (parent)
chain: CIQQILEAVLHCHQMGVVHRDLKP

- Variants of: B1
- EXPERIMENT_DESCRIPTION: protein stability index of a GFP-peptide fusion (GPS, HEK-293T) (PSI 1-6); higher = more stable;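 also: lentivirally expressed fusions sorted by FACS into six bins by GFP to DsRed ratio, PSI derived from sequencing read proportions per bin multiplied by bin number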
- PROTOCOL_CONDITIONS: c terminus: a fixed tail appended
Criterion: protein stability index meeting or surpassing 2. Met: fulfilled. Not met: not fulfilled.

Answered cases to consult:
{"columns": ["VARIANT_STRING", "ASSIGNED_CATEGORY"],
 "data": [
  ["H11S", "fulfilled"],
  ["P24W", "not fulfilled"],
  ["D21W", "fulfilled"],
  ["I2V", "fulfilled"],
  ["H13F", "not fulfilled"],
  ["I5T", "fulfilled"]
]}

[Q] Assess whether reported protein stability index for M15W sits at 2 or higher.
[A] fulfilled

[Q] Entry D21K : is its protein stability index no less than 2?
[A] fulfilled

[Q] Please indicate if the recorded protein stability index for I2D meets or exceeds 2.
[A] fulfilled
